Test system: Leukemia subpanel
Assay Name: cells
Condition Summary: Homo sapiens, 48 h, read-out: TGI MG_MID
Can you tell me IC (TGI) for the items I'm about to list?
# unit: µM | format: bare number

// query Can you share its IC (TGI)? I mean this compound: C=C(C)[C@@H]1CC[C@]2(C(=O)N[C@H](CO)Cc3ccccc3)CC[C@]3(C)[C@H](CC[C@@H]4[C@@]5(C)CCCNC(C)(C)[C@@H]5CC[C@]43C)[C@@H]12
// result 1.03

// query // query: C=C(C)[C@@H]1CC[C@]2(C)[C@H](C=CC3=C4C[C@@](C)(CO)CC[C@]4(C)CC[C@]32C)[C@@]1(C)CCCN
// result 4.52

// query Request: Cc1ccc(S(=O)(=O)OC[C@]23CCC(C)(C)C[C@H]2C2=CC[C@@H]4[C@@]5(C)CCCNC(C)(C)[C@@H]5CC[C@@]4(C)[C@]2(C)CC3)cc1
// result 4.24

// query Lookup C=C(C)[C@@H]1CC[C@]2(C)[C@H](CC=C3[C@@H]4[C@@H](C)[C@H](C)CC[C@]4(CO)CC[C@]32C)[C@@]1(C)CCCN
// result 3.81

// query # repeat for CC(C)=C1CCC=C2CC[C@]3(C)[C@H](CC[C@@H]4[C@@]5(C)CCCNC(C)(C)[C@@H]5CC[C@]43C)[C@H]21
// result 3.59

// query Here is the next compound: C=C(C)C1CCC2(CO)CCC3(C)C(CCC4C5(C)CCCNC(C)(C)C5CCC43C)C12 (centres unmarked)
// result 4.3

// query Now the compound C=C(C)[C@@H]1CC[C@]2(COS(=O)(=O)c3ccc(C)cc3)CC[C@]3(C)[C@@H](CC[C@@H]4[C@@]5(C)CCCNC(C)(C)[C@@H]5CC[C@]43C)[C@@H]12
// result 4.06

// query Now consider Cc1ccc(S(=O)(=O)OC[C@@]2(C)CC[C@]3(C)CC[C@]4(C)C(=C3C2)C=C[C@@H]2[C@@]3(C)CCCNC(C)(C)[C@@H]3CC[C@]24C)cc1 and answer again.
// result 4.72

// query Queued: CC1(C)CC[C@]2(CO)CC[C@]3(C)C(=CC[C@@H]4[C@@]5(C)CCCNC(C)(C)[C@@H]5CC[C@]43C)[C@@H]2C1
// result 54.8

// query Thanks! And CC1(C)CC[C@]23CC[C@]4(C)[C@H](CC[C@@H]5[C@@]6(C)CCCNC(C)(C)[C@@H]6CC[C@]54C)[C@H]2[C@H]1OC3 ?
// result 5.49

// query Param item: C[C@H]1[C@H](C)CC[C@]2(CO)CC[C@]3(C)C(=CC[C@@H]4[C@@]5(C)CCCNC(C)(C)[C@@H]5CC[C@]43C)[C@H]12
// result 3.28

---

Test system: A375 (malignant melanoma)
Assay Name: SRB cytotoxicity assay, 72 h
Format: cell-based, human
Condition Summary: Homo sapiens, A-375, 72 h, A375, 72 h, cut-off 30 µM; read-out: EC50
Kindly supply the reported pEC50 values for the records listed here.
Worth noting: pEC50 values are minus log10 of concentrations stated in mol/L.

// query Quick one: pEC50 for Cc1ccc(S(=O)(=O)OC[C@@]2(C)CC[C@]3(C)CC[C@]4(C)C(=C3C2)C=C[C@@H]2[C@@]3(C)CCCNC(C)(C)[C@@H]3CC[C@]24C)cc1 ?
// result 5.72

// query Please give the result for C=C(C)[C@@H]1CCC=C2CC[C@]3(C)[C@H](CC[C@@H]4[C@@]5(C)CCCNC(C)(C)[C@@H]5CC[C@]43C)[C@H]21 too.
// result 5.75

// query And what about the compound CC(=O)[C@@H]1CC[C@]2(CO)CC[C@]3(C)[C@H](CC[C@@H]4[C@@]5(C)CCCNC(C)(C)[C@@H]5CC[C@]43C)[C@@H]12 ?
// result 5.10

// query How about C[C@H]1[C@H](C)CC[C@]2(C(=O)Nc3ccc4ncccc4c3)CC[C@]3(C)C(=CC[C@@H]4[C@@]5(C)CCCNC(C)(C)[C@@H]5CC[C@]43C)[C@H]12 ?
// result 5.80

// query Input C=C(C)[C@@H]1CC[C@]2(C(=O)N[C@H](CO)Cc3ccccc3)CC[C@]3(C)[C@H](CC[C@@H]4[C@@]5(C)CCCNC(C)(C)[C@@H]5CC[C@]43C)[C@@H]12
// result 6.00
